Origin of values: a melting point compilation (Tetko et al.; mined from patent text by program, amines drawn as free bases though some values may be those of a salt)

Measured melting point, listed per entry for reference.

# compound, melting point
measured = [
    ("CCCCNC(=O)C1CC2(NC(=O)NC2=O)c2cc(F)ccc2O1 (stereo unspecified)", "286 to 288 °C"),
    ("CN1C2C=C(c3ccc(Cl)c(Cl)c3)CC1CC2 (stereo unspecified)", "44 to 52 °C"),
    ("CCCCCCCCCCCCCCOC(=O)CNC(=O)OCc1ccccc1", "57 to 58 °C"),
    ("O=C(O)C1(CP(=O)(OCc2ccccc2)OCc2ccccc2)CCCC1", "89 to 92 °C"),
    ("CC(C)c1c(C=C(Cl)Cl)c(-c2ccc(F)cc2)n2c1CCCC2", "97 to 98 °C"),
    ("COC(=O)COc1ccc(C(=O)c2ccccc2)c(O)c1", "131 to 134 °C"),
    ("Cc1cc(C#N)cnc1Oc1c(Cl)cc(N)cc1Cl", "212 °C"),
    ("CCCCCCCCCCCCCCCCCCS(=O)(=O)c1cc2ccccc2cc1O", "98 to 99 °C"),
    ("CC(C)(C)C(=O)Nc1ccc(Cl)cn1", "51.4 to 53.4 °C"),
    ("CSc1cc(SC)c2ccc3c(SC)cc(SC)c4ccc1c2c43", "275 to 280 °C"),
    ("C=CCOc1ccc2c(c1)c(C)c(CCC(=O)O)n2Cc1ccc(Cl)cc1", "131 °C"),
]

====

# molecule, melting point
data = [
    ("O=C(NCC1CCN(c2cc3nc(C(=O)O)c(=O)[nH]c3cc2[N+](=O)[O-])C1)Nc1ccccc1 (stereo not given)", "> 300 °C"),
    ("CC1(C)C(=O)Nc2ccc(-c3coc(C#N)c3)cc21", "200 to 201 °C"),
    ("CCC(C)(C)c1ccc(OCCCNC(=O)c2cc(N)c3ccccc3c2O)c(C(C)(C)CC)c1", "120 to 123 °C"),
    ("CCOc1cc2c(cc1OC)C(c1cnc(OC)nc1)=N[C@@H]1CC[C@@H](O)C[C@H]21", "124 °C"),
    ("C1CCc2c(c(N3CCCC3)nn3nnnc23)C1", "272 to 273 °C"),
    ("COc1ccc(COC(=O)C(=CNc2ncccc2OC(=S)N(C)C)C(=O)OCc2ccc(OC)cc2)cc1", "117 to 118 °C"),
    ("Cc1cc(SCCc2ccc3sc(-c4ccc(C(F)(F)F)cc4)nc3c2)ccc1CCC(=O)O", "108 to 110 °C"),
    ("Fc1cccc(F)c1-c1cncn1-c1ccc(Cl)cc1", "170 to 172 °C"),
    ("C=CC[Si](C)(C)c1cccc(Cl)c1C(=O)NCC", "61 to 63 °C"),
    ("Cc1nc(N2CCN(Cc3ccc(F)cc3)C2=O)sc1C(=O)NCc1cccnn1", "222 to 225 °C"),
    ("N#CCNSc1ccc(Cl)cc1", "74 to 76 °C"),
    ("Cc1cc(CCCCCOc2ccc(-c3nc(C)c(C)s3)cc2)on1", "96 to 97 °C"),
    ("Fc1cc2c(Nc3ccc(F)c(Br)c3)ncnc2cn1", "269 to 270 °C"),
    ("CCOC(=O)CN(Cc1cc(F)ccc1F)S(=O)(=O)c1ccc(N2CCC(NC[C@H](O)c3ccc(O)c(NS(C)(=O)=O)c3)CC2)cc1", "85 to 90 °C"),
    ("O=C(O)CCCCCOc1cccc(OCc2ccccc2)c1", "72 to 73 °C"),
    ("CC(C)(CN)Nc1ncc2ncnc(Nc3ccc(F)c(Cl)c3)c2n1", "196 to 201 °C"),
    ("O=c1c(Cl)c(Cl)cnn1CC(Cl)=CCl", "93.7 to 94.6 °C"),
    ("Cc1cn(S(C)(=O)=O)c2c1C(=O)CC(c1cccs1)C2 (stereo not given)", "135 to 136 °C"),
    ("N#Cc1nc(-c2ccc(OCCN3CCCCC3)cc2)cs1", "85 to 86 °C"),
    ("CCOCC1=CC(=O)C=C2CCC3C4CCC(=O)C4(C)CCC3C21C (stereo not given)", "95 to 98 °C"),
    ("O=C(O)c1cn(C2CC2)c2c(F)c(N3CCNCC3)c(F)cc2c1=O", "> 270 °C"),
    ("O=C(O)CN1C(=O)C(=Cc2ccc(OCc3ccc(F)cc3F)c(OCc3ccc(F)cc3F)c2)SC1=S", "251 to 254 °C"),
    ("Cc1nn(C)c(S(N)(=O)=O)c1C(=O)OC(C)C", "120 to 122 °C"),
    ("N=C(Nc1ccc(Cl)cc1)Nc1ncccc1OCc1cccc(Cl)c1F", "204 to 207 °C"),
    ("COc1ccc2cccc3c2c1C(=O)C3=O", "218 to 220 °C"),
    ("CCN1C(=O)CCCc2cc(Nc3ncc(Cl)c(N[C@@H]4CCCC[C@H]4NS(C)(=O)=O)n3)c(OC)cc21", "120 to 128 °C"),
    ("O=CC1(Nc2ccccc2)CCN(CCc2ccccc2)CC1", "83 to 84 °C"),
    ("CNC(=O)c1ccc(-c2ccc3oc(C4CCN(C(=O)OC(C)C)CC4)nc3c2)cn1", "158 to 161 °C"),
    ("N#Cc1cc(F)cc(-c2cc(N)c3c(c2)C2(CCCCC2)C(=O)N3)c1", "241 to 243 °C"),
    ("N#CC1c2ccccc2Cc2ccccc21", "106 to 108 °C"),
    ("CCCCc1c(C(C)C)nc(C(C)C)c(CO)c1-c1ccccc1", "83 to 84 °C"),
    ("CC(c1cccc2c1Sc1c(O[Si](c3ccccc3)(c3ccccc3)C(C)(C)C)cccc1N2C)N1C(=O)c2ccccc2C1=O (stereo not given)", "182 to 184 °C"),
    ("CC(C)(C)C(Cc1ccccc1)C(=O)n1ccnc1 (stereo not given)", "90 to 91 °C"),
    ("CC(Cc1cc(F)cc2cc(Cl)oc12)NC(=O)OC(C)(C)C (stereo not given)", "133 to 135 °C"),
    ("Cc1cc(-n2c(C)ccc2-c2ccc(S(C)(=O)=O)cc2)ccc1-c1ccoc1", "69 to 75 °C"),
    ("COc1cccc(NC(=O)N(C)Cc2cccc3c2C(=O)N(C2CCC(=O)NC2=O)C3=O)c1 (stereo not given)", "160 to 162 °C"),
    ("O=C(O)c1ccccc1CF", "178 to 181 °C"),
    ("COC(C)(C)CNCc1cnc2c(C)c(NC(=O)c3ccc(OCC4CCOC4)cc3)ccc2c1 (stereo not given)", "137 °C"),
    ("CC(C)(C)NC(=O)c1nn(-c2ccc(Cl)cc2)c2c1C1CCC2CC1", "198 to 200 °C"),
    ("O=C(O)c1ccc(C23CC4CC(C2)CC(c2ccc(C(=O)O)cc2)(C4)C3)cc1", "304 to 306 °C"),
]
